Cited source: patent US20190169221A1

A short record of pIC50 observed with Dengue viral polymerase (Dengue virus type 2, UniProt P14340) follows.
pIC50: −log10 of the molar value.

So what's the measured pIC50 for this one? C[C@]1(F)[C@H](n2cnc3c(N)ncnc32)O[C@](F)(COP(=O)(O)OP(=O)(O)OP(=O)(O)O)[C@H]1O
4.52 to 5.52

Likewise for C#C[C@]1(O)[C@H](n2cnc3c(=O)[nH]cnc32)O[C@](F)(COP(=O)(O)OP(=O)(O)OP(=O)(O)O)[C@H]1O ?
4.52 to 5.52

Likewise for C#C[C@@]1(O)[C@H](O)[C@@H](COP(=O)(O)OP(=O)(O)OP(=O)(O)O)O[C@H]1c1ccc2c(N)ncnn12 ?
> 5.52

---

Test system: Human rhinovirus 16
protocol-summary: Enterovirus assay, HRV 16 (HeLa-OHIO cells)
Format: cell-based
stated-conditions: Rhinovirus A
readout-type: EC50

So what's the measured EC50 for this one? C#C[C@]1(O)[C@H](n2cnc3c(N)ncnc32)O[C@](F)(CO)[C@H]1O [Compound 1]
< 3 µM

---

Kindly supply the reported EC50 values for the records listed here.
Test system: Dengue virus type 2 strain New Guinea C (NG-C)
protocol-summary: Dengue viral assay (cytopathic effect, Huh-7.5 cells)
Type: cell-based
stated-conditions: Dengue virus type 2 (NG-C strain), read-out: Dengue NGC EC50

Field: EC50 (Dengue virus type 2 strain New Guinea C (NG-C)). Entry: C#C[C@]1(O)[C@H](n2cnc3c(NC(=O)OC(C)(C)C)ncnc32)O[C@](F)(COC(c2ccccc2)(c2ccccc2)c2ccc(OC)cc2)[C@H]1OC(=O)CCCCCCC
< 3 µM

Likewise for C#C[C@]1(OC(C)=O)[C@H](n2cnc3c(N)ncnc32)O[C@](F)(COC(C)=O)[C@H]1OC(C)=O ?
< 3 µM

Likewise for C#C[C@]1(O)[C@H](n2cnc3c(N)ncnc32)O[C@](F)(CO)[C@H]1OC(=O)NCCC ?
30 to 100 µM

---

system-name: human rhinovirus 16 polymerase (HRV16pol) (Human rhinovirus 16)
Sequence (Q82122 1694-2153 limits assumed): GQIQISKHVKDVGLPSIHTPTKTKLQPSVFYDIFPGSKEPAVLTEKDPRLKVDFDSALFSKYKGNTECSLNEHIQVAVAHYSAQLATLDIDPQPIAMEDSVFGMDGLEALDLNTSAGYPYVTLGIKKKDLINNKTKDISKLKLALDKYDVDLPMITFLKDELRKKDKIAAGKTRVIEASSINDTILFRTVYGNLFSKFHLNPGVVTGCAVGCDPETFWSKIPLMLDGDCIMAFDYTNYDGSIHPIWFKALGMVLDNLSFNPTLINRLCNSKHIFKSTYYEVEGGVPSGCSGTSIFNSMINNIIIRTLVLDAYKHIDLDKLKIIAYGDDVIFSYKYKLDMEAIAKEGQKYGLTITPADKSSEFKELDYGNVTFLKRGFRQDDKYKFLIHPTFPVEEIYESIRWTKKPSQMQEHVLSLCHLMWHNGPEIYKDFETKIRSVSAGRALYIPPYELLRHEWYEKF
pIC50: −log10 of the molar value.
readout-type: pIC50

So what's the measured pIC50 for this one? C#C[C@]1(O)[C@H](n2cnc3c(=O)[nH]cnc32)O[C@](F)(COP(=O)(O)OP(=O)(O)OP(=O)(O)O)[C@H]1O
> 5.52

Likewise for C#C[C@]1(O)[C@H](n2ccc3c(N)ncnc32)O[C@](F)(COP(=O)(O)OP(=O)(O)OP(=O)(O)O)[C@H]1O ?
> 5.52

Likewise for C#C[C@@]1(O)[C@H](O)[C@@H](COP(=O)(O)OP(=O)(O)OP(=O)(O)O)O[C@H]1n1cnc2c(N)nc(F)nc21 ?
> 5.52

Likewise for C#C[C@@]1(O)[C@H](O)[C@@H](COP(=O)(O)OP(=O)(O)OP(=O)(O)O)O[C@H]1n1cnc2c(N)nc(N)nc21 ?
> 5.52

Likewise for C#C[C@]1(O)[C@H](n2cnc3c(N)nc(F)nc32)O[C@](F)(COP(=O)(O)OP(=O)(O)OP(=O)(O)O)[C@H]1O ?
> 5.52

Likewise for C#C[C@@]1(O)[C@H](O)[C@@H](COP(=O)(O)OP(=O)(O)OP(=O)(O)O)O[C@H]1c1cnc2c(N)ncnn12 ?
> 5.52

Likewise for C#C[C@]1(O)[C@H](n2cc(C(N)=O)c3c(N)ncnc32)O[C@](F)(COP(=O)(O)OP(=O)(O)OP(=O)(O)O)[C@H]1O ?
> 5.52

Likewise for C#C[C@]1(O)[C@H](n2cnc3c(N)ncnc32)O[C@](F)(COP(=O)(O)OP(=O)(O)OP(=O)(O)O)[C@H]1O ?
> 5.52

Likewise for C#C[C@]1(O)[C@H](n2cc(C#N)c3c(N)ncnc32)O[C@](F)(COP(=O)(O)OP(=O)(O)OP(=O)(O)O)[C@H]1O ?
> 5.52

Likewise for C#C[C@@]1(F)[C@H](O)[C@@H](COP(=O)(O)OP(=O)(O)OP(=O)(O)O)O[C@H]1c1cnc2c(N)ncnn12 ?
4.00 to 4.52

Likewise for C[C@]1(O)[C@H](n2cnc3c(N)ncnc32)O[C@](F)(COP(=O)(O)OP(=O)(O)OP(=O)(O)O)[C@H]1O ?
> 5.52

Likewise for C#C[C@@]1(O)[C@H](O)[C@@H](COP(=O)(O)OP(=O)(O)OP(=O)(O)O)O[C@H]1c1ccc2c(N)ncnn12 ?
> 5.52

Likewise for C[C@]1(F)[C@H](n2cnc3c(N)ncnc32)O[C@](F)(COP(=O)(O)OP(=O)(O)OP(=O)(O)O)[C@H]1O ?
> 5.52

Likewise for C[C@]1(F)[C@H](n2cnc3c(N)nc(N)nc32)O[C@](F)(COP(=O)(O)OP(=O)(O)OP(=O)(O)O)[C@H]1O ?
> 5.52

Likewise for C#C[C@]1(O)[C@H](n2cc(F)c3c(N)ncnc32)O[C@](F)(COP(=O)(O)OP(=O)(O)OP(=O)(O)O)[C@H]1O ?
> 5.52

Likewise for C=C=C[C@@]1(O)[C@H](O)[C@@H](COP(=O)(O)OP(=O)(O)OP(=O)(O)O)O[C@H]1n1cnc2c(N)ncnc21 ?
4.52 to 5.52

Likewise for C#C[C@@]1(O)[C@H](O)[C@@H](COP(=O)(O)OP(=O)(O)OP(=O)(O)O)O[C@H]1n1cnc2c(=O)[nH]cnc21 ?
< 4.00

Likewise for C#C[C@@]1(O)[C@H](O)[C@@H](COP(=O)(O)OP(=O)(O)OP(=O)(O)O)O[C@H]1n1cc(F)c2c(N)ncnc21 ?
> 5.52
